Tested on: endogenous pyrophosphatase activity in aortic rat rings
Assay: PPi hydrolysis by whole aortas ex vivo
Details: inhibition of PPi hydrolysis, aortic rat rings ex vivo; 30 μM
metric.name: % Inhibition (%)
Give bare numbers, in %.

[[record]]
compound = "Cn1ccnc1Sc1nc(Nc2ccccc2)nc(Nc2ccccc2)n1"
numeric_value = 39.9

[[record]]
compound = "c1ccc([C@H]2CN3CCSC3=N2)cc1 [levamisole, reference compound]"
numeric_value = 21.2

[[record]]
compound = "Cn1cnnc1SC(C(=O)c1ccccc1)c1ccccc1 (stereo not shown)"
numeric_value = 15.9


Incoming: Fill in the blank: the reported % Inhibition of O=C(CSc1nnc[nH]1)NCCOc1ccccc1 is ____.
Outgoing: 22.2

----------
So I've got a bunch of compounds here, and I need their Ki values.
Target: human TNAP (Homo sapiens, UniProt P05186)
Construct: made in house; host or cells: COS-1 cells, transient expression; dialyzed serum-free conditioned medium
Sequence (P05186 18-502 limits assumed): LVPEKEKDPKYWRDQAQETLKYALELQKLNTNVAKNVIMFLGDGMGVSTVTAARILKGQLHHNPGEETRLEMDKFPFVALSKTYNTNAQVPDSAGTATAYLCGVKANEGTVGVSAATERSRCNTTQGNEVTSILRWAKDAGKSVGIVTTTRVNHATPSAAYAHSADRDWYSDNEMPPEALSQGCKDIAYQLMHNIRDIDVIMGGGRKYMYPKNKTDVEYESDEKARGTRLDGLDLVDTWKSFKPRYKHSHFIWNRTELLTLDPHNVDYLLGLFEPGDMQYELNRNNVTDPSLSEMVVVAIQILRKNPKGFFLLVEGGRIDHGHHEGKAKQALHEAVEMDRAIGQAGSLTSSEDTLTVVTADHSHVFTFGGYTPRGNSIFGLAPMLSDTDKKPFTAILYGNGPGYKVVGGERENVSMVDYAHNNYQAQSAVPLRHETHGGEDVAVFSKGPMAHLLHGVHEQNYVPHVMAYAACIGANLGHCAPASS
Test: Enzyme kinetic experiments, Ki and mechanism of TNAP inhibition
Assay type: biochemical
Settings: pH 7.5, 1 M Tris-HCl buffer, pNPP substrate; read-out: Ki (μM) @ pH 7.5
Method: Expression plasmids containing a secreted epitope-tagged TNAP, PLAP and IAP were transfected into COS-1 cells for transient expression using a standard electroporation method. […] […] TNAP, PLAP and IAP activities were adjusted to an approximate ΔA405 nm, equivalent to 1, measured after 30 min. Residual AP activity in the presence of inhibitors was expressed as percentage of the control activity. […]
Give bare numbers, in µM.

Consider the reported Ki for these compounds:
[[record]]
compound = "O=C(CSc1nnc[nH]1)NCCOc1ccccc1"
endpoint_unit = "µM"
numeric_value = 33

[[record]]
compound = "Cn1cnnc1SC(C(=O)c1ccccc1)c1ccccc1 (stereo not drawn)"
endpoint_unit = "µM"
numeric_value = 6.4


Incoming: Dear colleague, I am looking for the recorded Ki of the following compound: Cn1ccnc1Sc1nc(Nc2ccccc2)nc(Nc2ccccc2)n1 [compound 5804079]
Outgoing: 2.8

----------
Record form. Attribute: pIC50. Fill in for each entry.
Molecular target: tissue-nonspecific alkaline phosphatase (TNAP) (Homo sapiens)
Construct: dialyzed serum-free conditioned medium
Sequence (P05186 18-502 limits assumed): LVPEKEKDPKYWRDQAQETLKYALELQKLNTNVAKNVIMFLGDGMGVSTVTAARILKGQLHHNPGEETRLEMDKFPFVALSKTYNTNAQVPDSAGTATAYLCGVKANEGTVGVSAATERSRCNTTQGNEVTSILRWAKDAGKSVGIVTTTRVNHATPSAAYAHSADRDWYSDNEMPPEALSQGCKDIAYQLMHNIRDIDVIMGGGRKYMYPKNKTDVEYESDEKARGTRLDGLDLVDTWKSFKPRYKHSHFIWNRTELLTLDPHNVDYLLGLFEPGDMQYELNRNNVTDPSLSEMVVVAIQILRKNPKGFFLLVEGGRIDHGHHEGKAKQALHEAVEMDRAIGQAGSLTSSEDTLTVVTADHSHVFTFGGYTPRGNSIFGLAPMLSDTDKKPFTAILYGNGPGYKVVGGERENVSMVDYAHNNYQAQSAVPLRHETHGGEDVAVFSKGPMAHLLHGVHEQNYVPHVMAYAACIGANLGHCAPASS
Experiment: TNAP inhibition screening assay (colorimetric pNPP / luminescence CDP-star), IC50
Settings: Tables A-H; tissue-nonspecific alkaline phosphatase inhibitors
Numbers only, as −log10 of the molar value.

Below, 5 compounds whose answers are already recorded.
[[record]]
compound = "Cn1cccc1-c1cc(C(=O)O)[nH]n1 [Compound A7]"
experimental_target = "tissue-nonspecific alkaline phosphatase (TNAP) (Homo sapiens)"
metric_name = "pIC50"
numeric_value = 4.99

[[record]]
compound = "CC1(C)CC(=O)c2c(n[nH]c2Cc2ccccc2)C1 [Compound B3]"
experimental_target = "tissue-nonspecific alkaline phosphatase (TNAP) (Homo sapiens)"
metric_name = "pIC50"
numeric_value = 6.24

[[record]]
compound = "COc1ccc(C)cc1S(=O)(=O)Nc1cccnc1 [Compound F2]"
experimental_target = "tissue-nonspecific alkaline phosphatase (TNAP) (Homo sapiens)"
metric_name = "pIC50"
numeric_value = 6.12

[[record]]
compound = "COCc1n[nH]c2c1C(c1cc(OC)c(O)c(OC)c1)C(C#N)=C(N)O2 (centres unmarked) [Compound B6]"
experimental_target = "tissue-nonspecific alkaline phosphatase (TNAP) (Homo sapiens)"
metric_name = "pIC50"
numeric_value = 5.28

[[record]]
compound = "CCCCc1[nH]nc2c1C(=O)CC(C)(C)C2 [Compound B1]"
experimental_target = "tissue-nonspecific alkaline phosphatase (TNAP) (Homo sapiens)"
metric_name = "pIC50"
numeric_value = 5.82


Hi, could you look up pIC50 for each item in my list?
1. CCOC(=O)C1C(=O)Nc2nc3ccccc3n2C1C(C)C (centres unmarked) [Compound E10]
2. COC(=O)c1cc(-c2ccccc2)n[nH]1 [Compound A4]
3. Nc1[nH]nc(-c2ccc(Br)cc2)c1Cl [Compound A6]
4. COc1cc(C(=O)Nc2cc(-c3ccccc3)n[nH]2)cc(OC)c1OC [Compound E7]
5. O=C(CSc1nnc(-c2ccccc2)[nH]1)NC(=O)NCc1ccco1 [Compound C5]

Outgoing:
5.40
6.01
5.19
5.62
5.80

Quick request: pIC50 for each listed item, please.
1. Cc1ccc(-n2ccc3c2ncn2c(C)nnc32)cc1C [Compound E17]
2. Clc1ccccc1-c1n[nH]c(-c2ccccc2)n1 [Compound E8]
3. [H]/N=C(C)\C(C#N)=C(\O)CSc1nnc(-c2ccccc2Br)[nH]1 [Compound E4]
4. Cc1cc(O)oc2nnc(-c3ccccc3)c1-2 [Compound B4]
5. Cc1ccsc1/C=c1\sc2ncnn2c1=O [Compound E19]
6. CC1(C)CC(=O)c2c(n[nH]c2-c2cccs2)C1 [Compound B2]

Outgoing:
[5.10, 5.61, 5.97, 6.00, 4.95, 5.44]

Incoming: Fill blank: measured pIC50 of the compound O=C(O)c1[nH]nc2c1COc1ccccc1-2 [Compound B10] is ____.
Outgoing: 5.87

----------
Molecular target: human TNAP (Homo sapiens)
Construct: made in house; host or cells: COS-1 cells, transient expression; dialyzed serum-free conditioned medium
Test: Enzyme kinetic experiments, Ki and mechanism of TNAP inhibition
Type: biochemical
Conditions: Tables D and E; pH not given; read-out: Ki
Experimental: Expression plasmids containing a secreted epitope-tagged TNAP, PLAP and IAP were transfected into COS-1 cells for transient expression using a standard electroporation method. […] […] TNAP, PLAP and IAP activities were adjusted to an approximate ΔA405 nm, equivalent to 1, measured after 30 min. Residual AP activity in the presence of inhibitors was expressed as percentage of the control activity. […]
metric.name: Ki

Incoming: Name the reported Ki value associated with the molecule Cn1ccnc1Sc1nc(Nc2ccccc2)nc(Nc2ccccc2)n1 [Compound E1]
Outgoing: 5.6 µM

----------
Biological target: tissue-nonspecific alkaline phosphatase (TNAP) (Homo sapiens, UniProt P05186)
Construct: dialyzed serum-free conditioned medium
Sequence (P05186 18-502 limits assumed): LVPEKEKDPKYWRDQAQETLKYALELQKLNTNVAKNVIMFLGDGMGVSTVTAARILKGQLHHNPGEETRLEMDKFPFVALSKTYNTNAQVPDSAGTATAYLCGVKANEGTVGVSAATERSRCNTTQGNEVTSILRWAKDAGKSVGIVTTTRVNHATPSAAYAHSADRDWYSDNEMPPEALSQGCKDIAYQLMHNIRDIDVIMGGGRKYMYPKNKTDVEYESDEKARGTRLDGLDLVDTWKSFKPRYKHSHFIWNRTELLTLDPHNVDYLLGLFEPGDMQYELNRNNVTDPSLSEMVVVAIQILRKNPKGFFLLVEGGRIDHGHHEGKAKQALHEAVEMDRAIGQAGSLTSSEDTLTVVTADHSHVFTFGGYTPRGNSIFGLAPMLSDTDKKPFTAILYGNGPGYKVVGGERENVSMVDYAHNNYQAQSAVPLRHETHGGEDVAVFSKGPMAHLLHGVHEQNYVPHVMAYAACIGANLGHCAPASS
Experiment: TNAP inhibition screening assay (colorimetric pNPP / luminescence CDP-star), IC50
Settings: Tables A-H; tissue-nonspecific alkaline phosphatase inhibitors
metric.name: pIC50
One number for each entry, as −log10 of the molar value.

Some molecules with recorded pIC50:
[[record]]
molecule = "Cn1ncc2c1ncn1nc(CCc3ccccc3)nc21 [Compound E21]"
experimental_target = "tissue-nonspecific alkaline phosphatase (TNAP) (Homo sapiens, UniProt P05186)"
metric_name = "pIC50"
numeric_value = 4.80

[[record]]
molecule = "O=C1C2CC=CCC2C(=O)N1c1nnc(Cc2ccccc2)[nH]1 (centres unmarked) [Compound E2]"
experimental_target = "tissue-nonspecific alkaline phosphatase (TNAP) (Homo sapiens, UniProt P05186)"
metric_name = "pIC50"
numeric_value = 6.48

[[record]]
molecule = "N#C/C(=C\\c1ccc(O)c(O)c1)C(=O)NCCCc1ccccc1 [Compound H2]"
experimental_target = "tissue-nonspecific alkaline phosphatase (TNAP) (Homo sapiens, UniProt P05186)"
metric_name = "pIC50"
numeric_value = 5.29


Hey, can you go through the list below and give me pIC50 for every item?
1. c1ccc(-c2n[nH]c3c2CCC3)cc1 [Compound B11]
2. Cc1cccc(C)c1OCc1nnc2c3cnn(C)c3ncn12 [Compound E16]

Outgoing:
1. 5.47
2. 5.16

Measured values drawn from patent US8686003B2 for this set.
